System: Escherichia coli TOP10;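 further: peptides expressed intracellularly from a pBAD plasmid library in pooled LB shake-flask culture, induced with 0.3% L-arabinose, DNA abundance read by NGS, three biological replicates, DESeq2 with apeglm shrinkage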
experiment.notes: shrunken log2 fold change of peptide-encoding DNA abundance (4.5 h post-induction vs induction); higher = less antimicrobial activity (less host growth inhibition)
measurement.parameters: time post-induction: 4.5 h; library: site-saturation at positions 5, 18, 19, 20
parameter: shrunken log2 fold change
Simply state the number, no unit and no words.

{"macromolecule.sequence": "RRIRIRPPRLPRPRPRPSQTPRP", "shrunken log2 fold change": -0.0359}
{"macromolecule.sequence": "RRIRPRPPRLPRPRPRPDAFPRP", "shrunken log2 fold change": 0.342}
{"macromolecule.sequence": "RRIRQRPPRLPRPRPRPKSYPRP", "shrunken log2 fold change": -0.0861}
{"macromolecule.sequence": "RRIRVRPPRLPRPRPRPATQPRP", "shrunken log2 fold change": -0.0949}
{"macromolecule.sequence": "RRIRNRPPRLPRPRPRPCQAPRP", "shrunken log2 fold change": -0.112}
{"macromolecule.sequence": "RRIRVRPPRLPRPRPRPHEGPRP", "shrunken log2 fold change": -0.0348}
{"macromolecule.sequence": "RRIRWRPPRLPRPRPRPFKMPRP", "shrunken log2 fold change": -0.0125}
{"macromolecule.sequence": "RRIRVRPPRLPRPRPRPPQRPRP", "shrunken log2 fold change": 0.374}
{"macromolecule.sequence": "RRIRNRPPRLPRPRPRPLIIPRP", "shrunken log2 fold change": -0.433}
{"macromolecule.sequence": "RRIRARPPRLPRPRPRPDGRPRP", "shrunken log2 fold change": 0.197}

Quick note, shrunken log2 fold change for `RRIRDRPPRLPRPRPRPASIPRP` landed at 0.0781

Query `RRIRKRPPRLPRPRPRPDKTPRP` yields shrunken log2 fold change of -0.0726

Item: `RRIRHRPPRLPRPRPRPKIKPRP` | shrunken log2 fold change: -0.601

# shrunken log2 fold change of `RRIRVRPPRLPRPRPRPHNHPRP` = -0.468

Per the records, this sequence ( `RRIRERPPRLPRPRPRPSAYPRP` ) has shrunken log2 fold change equal to -0.354
